The values you see were collected from ChEMBL document CHEMBL1152629.

- PROCEDURE TEXT: Inhibition of Bacillus anthracis sortase A by FRET-based enzyme kinetics assay
- CONDITION: read-out: Ki(app)
pKi: −log10 of the molar value.
MEASURED METRIC: pKi

> print(dat)
                         chemical.structure  value.observed
1  CC1=NN(c2ccccc2)C(=S)/C1=C/Nc1c(Br)cc(Br)cc1Br            5.77
2               CCSc1c(S)cnn(-c2ccccc2)c1=O            6.52

###

- Test system: Staphylococcus aureus
- PROCEDURE TEXT: Antimicrobial activity against Staphylococcus aureus Newman by microtiter broth dilution method
- Assay type: functional
Active and inactive are the calls of the source. The rule behind the calls is not given here.
MEASURED METRIC: Activity

> print(dat)
                         chemical.structure  measured.metric  value.observed
1  CC1=NN(c2ccccc2)C(=S)/C1=C/Nc1c(Br)cc(Br)cc1Br         Activity        inactive
2  CC1=NN(c2ccccc2)C(=S)/C1=C/Nc1ccc(Br)cc1         Activity        inactive
3            CCOc1cnn(-c2cccc(C)c2)c(=O)c1S         Activity        inactive
4  CC1=NN(c2ccccc2)C(=S)/C1=C/Nc1ccc(/N=N/c2ccccc2)cc1         Activity        inactive
5      CC1=NN(c2ccccc2)C(=S)/C1=C/Nc1ccccn1         Activity        inactive
6               CCSc1c(S)cnn(-c2ccccc2)c1=O         Activity        inactive

###

- PROCEDURE TEXT: Inhibition of Bacillus anthracis sortase A by FRET assay
pIC50: −log10 of the molar value.
Below, each of the compounds is paired with its reported pIC50 value.
MEASURED METRIC: pIC50

> print(dat)
                         chemical.structure  measured.metric  inequality.sign  value.observed
1              CCOc1c(SS)cnn(-c2ccccc2)c1=O            pIC50                =            5.92
2               CCSc1c(O)cnn(-c2ccccc2)c1=O            pIC50                <            4.30
3                COc1c(O)cnn(-c2ccccc2)c1=O            pIC50                <            4.30
4                O=c1c(Cl)c(Cl)cnn1C1CCCCC1            pIC50                =            4.85
5            CCOc1cnn(-c2cccc(F)c2)c(=O)c1S            pIC50                =            6.05
6      CC1=NN(c2ccccc2)C(=S)/C1=C/Nc1ccccn1            pIC50                =            5.85
7       CCOc1cnn(-c2cc(Cl)cc(Cl)c2)c(=O)c1S            pIC50                =            5.28
8  C=CCN1C(=O)/C(=C/c2ccc(-c3ccccc3)o2)SC1=S            pIC50                =            4.57
9        O=c1c(OCc2ccccc2)c(O)cnn1-c1ccccc1            pIC50                <            4.30
